Data provenance is PubChem BioAssay (NCI).

For each entry below, report its TGI value.
test system: KM12 colon; test: NCI tumour cell line growth inhibition, 48 h

[[record]]
compound = "COc1ccc(-c2c(C#N)c(N3CCOCC3)nc3[nH]c(=S)[nH]c(=S)c23)cc1OC"
target_desc = "KM12 colon"
observation_type = "TGI"
result = "> 100 µM"

[[record]]
compound = "C/C(=N\\NC(N)=O)c1sc(-c2nc(C)c(/C(C)=N/NC(N)=O)s2)nc1C"
target_desc = "KM12 colon"
observation_type = "TGI"
result = "> 100 µM"


Dear colleague, could you please provide TGI for the compounds listed below?
1. Cc1cc2c(cc1C)[n+](=O)cc(C(=O)C/C(=N/NC(=S)NN)C(=O)Nc1cccc(C(F)(F)F)c1)n2[O-]
2. C[C@@H]1CCC2[C@@H](C)[C@@H](O[C@H]3O[C@@H]4O[C@@]5(C)CCC6[C@H](C)CCC([C@H]3C)[C@]64OO5)O[C@@H]3O[C@@]4(C)CCC1[C@@]23OO4 (some centres undefined)
3. CCOC(=O)CNC(=O)NC12CC3CC(CC(C3)C1)C2
4. CC12c3c4ccc(C=O)c3Oc3ccc(C=O)c(c31)Oc1ccc(C=O)c(c12)O4
5. CCCCCCCCc1cc2c(O)c(c1)Cc1cc(CCCCCCCC)cc(c1O)Cc1cc(CCCCCCCC)cc(c1O)Cc1cc(CCCCCCCC)cc(c1O)Cc1cc(CCCCCCCC)cc(c1O)Cc1cc(CCCCCCCC)cc(c1O)C2
6. CC[C@@H]1NC(C(=O)OC)Cc2c1[nH]c1ccccc21 (some centres undefined)

> 100 µM
> 25 µM
> 449 µM
> 25 µM
> 100 µM
> 100 µM
